Tested on: PC-3M
Test: Cytotoxicity against human PC3M cells after 72 hrs by resazurin/AlamarBlue dye-based fluorescence assay
Format: functional, cell-based
The reader will find reported IC50 values listed item by item below.

compound	measuredTarget	IC50 (nM)
C[C@H]1CCC/C=C/C(=O)c2c(cc(O)c(Cl)c2O)CC(=O)O1	PC-3M	1710
C[C@H]1CCC/C=C/C(=O)c2c(O)cc(O)cc2CC(=O)O1 [DEHYDROCURVULARIN]	PC-3M	4510
COc1cccc2c1C(=O)c1c(O)c3c(c(O)c1C2=O)C[C@@](O)(C(=O)CO)C[C@@H]3O[C@H]1C[C@H](N)[C@H](O)[C@H](C)O1	PC-3M	240

----------
Test system: MDA-MB-231
Assay: Cytotoxicity against human MDA-MB-231 cells after 72 hrs by resazurin/AlamarBlue dye-based fluorescence assay
Format: functional, cell-based
Conditions: MDA-MB-231, 72 h
pIC50: −log10 of the molar value.
The reader will find reported pIC50 values listed item by item below.

molecule	measuredTarget	comparator	pIC50
C[C@H]1CCC/C=C/C(=O)c2c(cc(O)c(Cl)c2O)CC(=O)O1	MDA-MB-231	=	5.53
C[C@H]1CCC/C=C/C(=O)c2c(O)cc(O)cc2CC(=O)O1 [DEHYDROCURVULARIN]	MDA-MB-231	<	5.30
